Give self-cleavage for every item shown.
B1: CPEB3 Ribozyme (parent)
chain: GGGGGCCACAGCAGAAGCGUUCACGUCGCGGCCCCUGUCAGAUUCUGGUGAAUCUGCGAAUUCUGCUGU

variants of: B1; test: self-cleavage, relative activity (ratio to wild type); higher = more cleavage; co-transcriptional
One number for each entry.

Examples from the recorded data:
RESIDUE_CODES	self-cleavage
GGGGGCCACAGCAGAAGCGUUCACGUCGCGGCCCCUGUCCGCUUCUGGUGAAUCUGCGAAUUCUGCUGU [A40C A42C]	0.26
GGGGGCCACAGCAGAAGCAUUCACGUCGCGGCCCCUGUCACAUUCUGGUGAAUCUGCGAAUUCUGCUGU [G19A G41C]	0.187
GGGUGCCACAGCAGAAGCGUUCACGUCGCGGCCCCUGUCAGAUUCUGGUGCAUCUGCGAAUUCUGCUGU [G4U A51C]	0.524
GGGGUCCACAGCAGAAGCGUUCACGUCGCGGCCCCUGUCAGAUUCUGGUGAAUCUGCGAAUUCUGCUUU [G5U G68U]	0.793
GGGGGCCACAGCAGAAGCGUUCACGUCGCGGCCCCUGUCAGAUUCUAGUGAAUCUGCGAAUUCUGCUGU [G47A]	1
GUGGGCCACAGCAGAAGCGUUCACGUCGCGGCCCCUGUCUGAUUCUGGUGAAUCUGCGAAUUCUGCUGU [G2U A40U]	0.0492

# batch: return self-cleavage for each of the 4 variants below
1. GGGGGCCACAGCAGAAGCGUUCACGUCGGGGCCCCUGUCAGAUUCUAGUGAAUCUGCGAAUUCUGCUGU [C29G G47A]
2. GGGGGCCACAGCAGAAACGUUCACGUCGCGGCCCCUGUCUGAUUCUGGUGAAUCUGCGAAUUCUGCUGU [G17A A40U]
3. GGGGGCCACAGCAGAAGCGUUCACGUCGCGGCGCCUGUCAGAUUCUGGUGAAUCUGCGAAAUCUGCUGU [C33G U61A]
4. GGGGGCCACAGCAGAAGCGAUCACGUCGCGGCCCCUGGCAGAUUCUGGUGAAUCUGCGAAUUCUGCUGU [U20A U38G]

1. 0.553
2. 0.2
3. 0.317
4. 0.23
